Give growth inhibition for every item shown.
# test.name: NCI Yeast Anticancer Drug Screen. Data for the rad50 strain (AID 155);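 note: 0% = growth of vehicle-only cultures of the same strain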
# condition.set: S. cerevisiae rad50 strain growth inhibition; at 50.0 µM; active compounds read high
# Procedure: Growth inhibition of yeast strains with defined genetic alterations is measured as a screen for potential anti-cancer activity. Selected strains with alterations in DNA damage repair or cell cycle control were exposed to compounds and growth inhibition was measured relative to vehicle treated controls. The strain used in this assay is rad50
This is part of a sample that, as a whole, favours compounds with a hit. Of some 79,000 tested, about 15% had one in any assay. Where a SMILES comes first, the peptide text is derived from it. [ ]: non-standard residue; d: D form. The star is where a group is joined. ξ: configuration not given here. Cbz = O=C(OCc1ccccc1)*; ξT = CC(O)C(N)C(=O)O
Report the figure in % without appending any unit label.

Please look up its growth inhibition: O=C(O)CN1C(=O)C2C3c4ccccc4C(c4ccccc43)C2C1=O (stereo not given)
-5.65

Now the same for COc1ccc(NC(=O)Oc2ccc3c(C)cc(=O)oc3c2)c(OC)c1 (tested in a mixture with another compound)
-3.7

Follow-up entry: CC(=O)OC1CC2C=CC1C2 (stereo not given)
-3.55

And for CCOC(=O)CCCCCC(C(=O)OCC)c1nc2ccccc2[nH]c1=O (stereo not given) ?
-14.4

Request: `COc1cc(C)c(/C=C/C(=O)N2C(=O)OC[C@@H]2c2ccccc2)c(C)c1`
4.35

Also, `CCCCCCOCC(=O)OC` please.
10.2

Further, for `OCCCSc1ccccc1SCCCO` ?
-1.4

What do we get for `CCCCCCSCCO` ?
-13.2

Likewise for `Cc1csc(-n2nc(C)cc2C)n1` ?
-5.35

Again, but for `N#Cc1cc2ccccc2c2ccccc12`
8.6

What would you report for `O=c1[nH]cc(SSc2c[nH]c(=O)[nH]c2=O)c(=O)[nH]1` ?
13.4

Follow-up item: `Nc1ccc2cccc(O)c2c1`
44.1

Same read-out for `N=C1N=C(N)c2cc3c(cc21)SCCSCCCSCCS3` ?
6.05

Ok, now `Cc1c2ccccc2nc(CS(=O)(=O)c2ccccc2)[n+]1[O-]`
-26.1

Thanks! And `CC1(C)c2ccccc2C(=O)C12CCC(=O)CC2` ?
9.2

Now give it for CCCCCCCCCCCCCCCCN1c2ccccc2C(C)(C)C12C=Cc1cccc([N+](=O)[O-])c1O2 (stereo not given) too.
2.85

Continue with `Oc1ccc(Cl)cc1C=Nc1cnc2ccccc2c1`
-14.6

Queued: `Cc1cc(O)c(Br)cc1C`
5.35

Field entry: `CC(=O)Nc1cc(Cl)cc2c1[nH]c(=O)c1ccccc12`
9.75

Then `O=C(Cc1ccccc1)NN1C(=O)/C(=C\c2cccc([N+](=O)[O-])c2)SC1=Nc1ccccc1` ?
-2.7

Moving on to the next compound: `O=C(O)CCSc1nc2ccccc2s1`
1.2

Consider next the compound `O=C1c2ccccc2C(=O)c2cc(C[n+]3ccccc3C3OCCO3)ccc21` in the same way.
19

Next up: CC(O)C(NC(=O)CNC(=O)CNC(=O)OCc1ccccc1)C(=O)O (stereo not drawn) (Cbz-Gly-Gly-[ξT]-OH)
7.2

What do you have for COC(=O)C1=NNC(c2ccc(C)cc2)C1 (stereo not given) ?
1.75

Then `CN(C)CCCSc1n[nH]c(=O)[nH]c1=O` ?
6.4
